Please find below Ki measurements for Peptidyl-prolyl cis-trans isomerase FKBP1A (Homo sapiens, UniProt P62942), combined from several publications.
MEASURE: Ki (nM)

Known Ki results, listed for orientation:
COMPOUND	UNIT ANNOTATION	Ki
CCC/C(=C/COC)c1cncc(C(OC(=O)[C@@H]2CCCCN2C(=O)C(=O)[C@@H]2CCCC[C@H]2C)/C(C)=C/C2CCOCC2)c1 (some centres unmarked)	nM	90
C=CCC/C=C(/c1cccnc1)c1ccc([C@H](OC(=O)[C@@H]2CCCCN2C(=O)C(=O)C(C)(C)C)/C(C)=C/C2CCN(C)CC2)s1	nM	70

I. CCC(=O)C(=O)N1CCC[C@H]1C(=O)OCc1ccccc1
II. COc1cc(C(=O)C(=O)N2CCCC[C@H]2C(=O)O[C@@H](/C(C)=C/[C@H]2CC[C@H](O)CC2)c2cncc(-c3c(OC)cccc3OC)c2)cc(OC)c1OC
// query Dear colleague, could you let me know whether I or II has the lower recorded Ki? Thanks. Output the label that corresponds to your choice.
// result II

a. COC(=O)C(=O)N1CCCC[C@H]1C(=O)OC/C(C)=C/[C@H]1CC[C@@H](O)CC1
b. C=CCC/C=C(\c1ccc([C@H](CCN2CCOCC2)OC(=O)[C@@H]2CCCCN2C(=O)C(=O)CC(C)C)s1)C1CCOCC1
c. CO[C@H]1C[C@@H]2CC[C@@H](C)[C@](O)(CC(=O)N3CCCC[C@H]3C(=O)O[C@H](/C(C)=C/CC(O)[C@H](C)C[C@@H]3CC[C@@H](O)[C@H](O)C3)CC(=O)[C@H](C)C[C@H](C)/C=C/C=C/C=C/1C)O2 (some centres unmarked)
d. COc1ccc(C(=O)C(=O)N2CCCC[C@H]2C(=O)O[C@H](CCCc2ccccc2)c2cncc(-c3ccccc3OC)c2)cc1OC
e. O=C(C(=O)N1CCCC[C@H]1C(=O)OCc1ccccc1)c1cccc(C(F)(F)F)c1
// query Rank items: key Ki, increasing. The labels, placed in the requested order, form the answer.
// result d, c, b, e, a
(d: 5 nM, c: 430 nM, b: 745 nM, e: 1500 nM, a: 70000 nM)

P. CCC/C=C(/c1cccnc1)c1cccc([C@@H](CCCc2ccccc2)OC(=O)[C@@H]2CCCCN2C(=O)C(=O)c2cc(OC)c(OC)c(OC)c2)c1
Q. CCCCOc1cccc(C(=O)C(=O)N2CCCC[C@H]2C(=O)OCCCc2ccccc2)c1
// query Quick check, higher Ki between P and Q ? Output the label that corresponds to your choice.
// result Q

I. CCCC/C=C(/c1cccnc1)c1cccc([C@@H](CCN2CCOCC2)OC(=O)[C@@H]2CCCCN2C(=O)C(=O)c2cc(OC)c(OC)c(OC)c2)c1
II. COc1ccc(/C=C/C(=O)N(C)[C@@H](C)C(=O)OCc2ccccc2)cc1
// query Dear colleague, could you let me know whether I or II has the lower recorded Ki? Thanks. Output the label that corresponds to your choice.
// result I
(I: 6 nM, II: 80000 nM)

I. O=C(OC(CCc1ccccc1)CCc1ccccc1)C1CCCCN1S(=O)(=O)Cc1ccccc1 (centres unmarked)
II. C=CCC/C=C(\c1ccc([C@@H](CCN2CCOCC2)OC(=O)[C@@H]2CCCCN2C(=O)C(=O)CC(C)C)s1)C1CCOCC1
III. O=C(CCC1CCCCC1)C(=O)N1CCC[C@H]1C(=O)OCCCc1cccnc1
IV. COC(=O)C(=O)N1CCCC[C@H]1C(=O)OC/C(C)=C/c1ccc(O)cc1
// query List items by Ki in falling order. The labels, placed in the requested order, form the answer.
// result IV, III, I, II
(IV: 60000 nM, III: 1400 nM, I: 107 nM, II: 55 nM)

1. CCC(C)(C)C(=O)C(=O)N1CCC[C@H]1C(=O)OCCc1cc(OC)c(OC)c(OC)c1
2. CCOCc1cccc(COCC)c1-c1ccc([C@@H](CCN2CCOCC2)OC(=O)[C@@H]2CCCCN2C(=O)C(=O)C(C)(C)C(C)C)s1
3. COc1cc(C(=O)C(=O)N2CCCC[C@H]2C(=O)O[C@@H](CCCc2ccccc2)c2cccc(/C(=C\CCc3ccccc3)c3cccnc3)c2)cc(OC)c1OC
4. CCCC/C=C(\c1cncc([C@H](OC(=O)[C@@H]2CCCCN2C(=O)C(=O)C(C)C)/C(C)=C/C2CCN(C)CC2)c1)C1CCCCC1
// query List items by Ki in falling order. The labels, placed in the requested order, form the answer.
// result 3, 4, 1, 2

A. COC/C=C(\c1cncc([C@@H](CCN2CCOCC2)OC(=O)[C@@H]2CCCCN2C(=O)C(=O)C(C)(C)C(C)C)c1)C(C)C
B. COc1cc(C(=O)C(=O)N2CCCC[C@H]2C(=O)OC(CCCc2ccccc2)c2cccc(C(=CCCc3ccccc3)c3cccnc3)c2)cc(OC)c1OC (some centres unmarked)
// query Dear colleague, could you let me know whether A or B has the lower recorded Ki? Thanks. Output the label that corresponds to your choice.
// result A
(A: 44 nM, B: 300 nM)
